Biological target: CNGA3 plus CNGB3 T383fsX channels (Homo sapiens)
Construct: expressed in transfected cells; host or cells: Xenopus laevis oocytes injected with cRNA transcribed from pGEMHE constructs
Sequence (Q16281 whole entry): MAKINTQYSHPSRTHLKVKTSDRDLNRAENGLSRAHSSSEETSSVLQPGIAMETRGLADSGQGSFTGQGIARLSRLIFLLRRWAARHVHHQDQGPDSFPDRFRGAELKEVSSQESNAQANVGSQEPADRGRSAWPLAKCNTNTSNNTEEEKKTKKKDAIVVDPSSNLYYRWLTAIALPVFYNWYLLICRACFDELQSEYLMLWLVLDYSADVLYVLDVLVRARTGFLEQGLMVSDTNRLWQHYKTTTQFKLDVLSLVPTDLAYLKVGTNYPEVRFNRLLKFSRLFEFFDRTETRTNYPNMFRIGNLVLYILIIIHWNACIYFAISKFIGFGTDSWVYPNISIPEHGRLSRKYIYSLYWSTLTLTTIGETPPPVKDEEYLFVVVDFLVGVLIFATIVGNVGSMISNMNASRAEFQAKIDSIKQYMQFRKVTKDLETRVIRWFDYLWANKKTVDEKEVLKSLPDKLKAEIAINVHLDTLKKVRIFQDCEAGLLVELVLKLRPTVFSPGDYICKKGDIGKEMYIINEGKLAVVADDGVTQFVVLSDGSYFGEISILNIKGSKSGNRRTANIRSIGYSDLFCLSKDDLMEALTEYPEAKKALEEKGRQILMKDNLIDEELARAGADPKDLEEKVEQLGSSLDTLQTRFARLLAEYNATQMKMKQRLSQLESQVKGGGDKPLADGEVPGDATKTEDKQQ
Assay: Inside-out patch-clamp recording of channels expressed in Xenopus oocytes (CNGB3 T383fsX)
Type: biochemical
Details: in the presence of 0.1 µM CPT-cGMP, Figure 6B; read-out: K1/2,L-cis-dilt., dose-response fit of Figure 6B
measured.quantity: IC50 (µM)

{"compound": "COc1ccc([C@@H]2Sc3ccccc3N(CCN(C)C)C(=O)[C@@H]2OC(C)=O)cc1 [L-cis-diltiazem]", "measured.quantity": "IC50", "endpoint.result": 135}
